Origin of measurements: paper PMC8469489

# experimental details: Pharmacokinetics of ginsenosides after single oral RGE with or without amoxicillin treatment
# Format: in vivo, mice
# condition: male, ICR, mouse, plasma, po, 2 g/kg, Control; single oral RGE 2 g/kg; plasma; read-out: Cmax
reported endpoint: Cmax (ng/mL)
Just the number in ng/mL, nothing appended.

I have this molecule here, CC(C)=CCC[C@](C)(O[C@@H]1O[C@H](CO[C@@H]2O[C@H](CO)[C@@H](O)[C@H](O)[C@H]2O)[C@@H](O)[C@H](O)[C@H]1O)[C@H]1CC[C@]2(C)[C@@H]1[C@H](O)C[C@@H]1[C@@]3(C)CC[C@H](O[C@@H]4O[C@H](CO)[C@@H](O)[C@H](O)[C@H]4O[C@@H]4O[C@H](CO)[C@@H](O)[C@H](O)[C@H]4O)C(C)(C)[C@@H]3CC[C@]12C [GRb1, 20(S)-ginsenosides Rb1] , and I need its recorded Cmax.
41.3

* * *

# experimental details: Pharmacokinetics of ginsenosides after single oral RGE after amoxicillin with or without repeated LAB treatment
# condition: male, ICR, mouse, plasma, po, 2 g/kg, Cmax, Amoxicillin 3 days then water 7 days; single oral RGE 2 g/kg
reported endpoint: Cmax
Report as: number unit

I have this compound here, CC(C)=CCC[C@](C)(O[C@@H]1O[C@H](CO[C@@H]2O[C@H](CO)[C@@H](O)[C@H](O)[C@H]2O)[C@@H](O)[C@H](O)[C@H]1O)[C@H]1CC[C@]2(C)[C@@H]1[C@H](O)C[C@@H]1[C@@]3(C)CC[C@H](O[C@@H]4O[C@H](CO)[C@@H](O)[C@H](O)[C@H]4O[C@@H]4O[C@H](CO)[C@@H](O)[C@H](O)[C@H]4O)C(C)(C)[C@@H]3CC[C@]12C [GRb1, 20(S)-ginsenosides Rb1] , and I need its recorded Cmax.
23.7 ng/mL

* * *

# experimental details: Pharmacokinetics of ginsenosides after single oral RGE with or without amoxicillin treatment
# Format: in vivo, mice
# condition: Control; single oral RGE 2 g/kg; plasma
Measured Tmax accompanies every entry in the list below.

Here is how some compounds turned out for Tmax.
>  <compound>
CC(C)=CCC[C@](C)(O[C@@H]1O[C@H](CO)[C@@H](O)[C@H](O)[C@H]1O)[C@H]1CC[C@]2(C)[C@@H]1[C@H](O)C[C@@H]1[C@@]3(C)CC[C@H](O)C(C)(C)[C@@H]3CC[C@]12C [CK, 20(S)-compound K]

>  <data value>
8.0 ± 0.0 h

$$$$
>  <compound>
CC(C)=CCC[C@](C)(O[C@@H]1O[C@H](CO[C@@H]2OC[C@H](O)[C@H](O)[C@H]2O)[C@@H](O)[C@H](O)[C@H]1O)[C@H]1CC[C@]2(C)[C@@H]1[C@H](O)C[C@@H]1[C@@]3(C)CC[C@H](O[C@@H]4O[C@H](CO)[C@@H](O)[C@H](O)[C@H]4O[C@@H]4O[C@H](CO)[C@@H](O)[C@H](O)[C@H]4O)C(C)(C)[C@@H]3CC[C@]12C

>  <data value>
8.0 ± 0.0 h

$$$$
>  <compound>
CC(C)=CCC[C@](C)(O[C@@H]1O[C@H](CO)[C@@H](O)[C@H](O)[C@H]1O)[C@H]1CC[C@]2(C)[C@@H]1[C@H](O)C[C@@H]1[C@@]3(C)CC[C@H](O[C@@H]4O[C@H](CO)[C@@H](O)[C@H](O)[C@H]4O[C@@H]4O[C@H](CO)[C@@H](O)[C@H](O)[C@H]4O)C(C)(C)[C@@H]3CC[C@]12C

>  <data value>
13.3 ± 9.2 h

$$$$

Now, please, on to the next compound.
I have this compound here, CC(C)=CCC[C@](C)(O[C@@H]1O[C@H](CO[C@@H]2O[C@@H](CO)[C@H](O)[C@H]2O)[C@@H](O)[C@H](O)[C@H]1O)[C@H]1CC[C@]2(C)[C@@H]1[C@H](O)C[C@@H]1[C@@]3(C)CC[C@H](O[C@@H]4O[C@H](CO)[C@@H](O)[C@H](O)[C@H]4O[C@@H]4O[C@H](CO)[C@@H](O)[C@H](O)[C@H]4O)C(C)(C)[C@@H]3CC[C@]12C , and I need its recorded Tmax.
8.0 ± 0.0 h
